These data points were gathered from patent US20060040957A1.

STUDY TARGET: MMP-13CD (catalytic domain of collagenase 3) (Homo sapiens, UniProt P45452)
ASSAY REMARKS: Thiopeptolide substrate hydrolysis assay, MMP-13CD
Type: biochemical
PARTICULARS: IC50 inhibition of MMP-13CD, running text after Table 1
Excerpt: Thiopeptolide substrates show virtually no decomposition or hydrolysis at or below neutral pH in the absence of a matrix metalloproteinase enzyme.
Where a name gives a salt, the structure may show the parent alone.
EXPERIMENTAL READOUT: pIC50
A value of pIC50 is the negative decimal logarithm of a concentration given in moles per litre.

Qu. Query: pIC50; subject: COc1cc(CNC(=O)c2cn3c(=O)n(Cc4ccc(F)c(F)c4)c(=O)c(C)c3s2)ccn1 [Example 114, hydrochloride]
Ans. 7.81
